- TEST TARGET: Neutrophil elastase (Homo sapiens, UniProt P08246)
- Sequence (P08246 whole entry): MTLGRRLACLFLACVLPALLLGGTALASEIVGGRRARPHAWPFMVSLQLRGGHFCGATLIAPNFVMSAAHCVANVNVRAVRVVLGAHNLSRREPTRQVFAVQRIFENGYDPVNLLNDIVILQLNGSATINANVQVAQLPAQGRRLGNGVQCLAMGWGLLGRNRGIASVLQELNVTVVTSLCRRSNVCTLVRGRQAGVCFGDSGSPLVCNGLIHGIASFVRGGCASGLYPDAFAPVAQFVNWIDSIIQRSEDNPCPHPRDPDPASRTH
- PROCEDURE DETAILS: Binding affinity for purified Human neutrophil elastase was determined in vitro.
MEASURED ENDPOINT: Ki (µM)

| ITEM SMILES | TEST TARGET | UNIT LABEL | RESULT NUMBER |
| --- | --- | --- | --- |
| CC(=O)O/C(=C(/NC(=O)[C@@H]1CCCN1C(=O)[C@@H](NC(=O)c1ccc(C(=O)NS(=O)(=O)c2ccc(Cl)cc2)cc1)C(C)C)C(C)C)C(F)(F)F | Neutrophil elastase (Homo sapiens, UniProt P08246) | µM | 0.32 |

1 = CC(C)[C@H](NC(=O)c1ccc(C(=O)N2CCOCC2)cc1)C(=O)N1CCC[C@H]1C(=O)NCC(=O)C(F)(F)C(F)(F)F
2 = CC(C)=C(NC(=O)[C@@H]1CCCN1C(=O)[C@@H](NC(=O)c1ccc(C(=O)N2CCOCC2)cc1)C(C)C)C(=O)C(F)(F)C(F)(F)F
Req: Consider 1 and 2 . Which of these has its Ki at a higher number? Record your answer as the label of the chosen record.
Resp: 1
